Entry source: paper PMC3589825

# Target or system: T1, Tat-P-TEFb complex (HIV-1 Tat 1–86, CDK9 1–330, cyclin T1 1–264) (human | HIV-1, UniProt P50750;O60563;P04608)
# T1 construct: also called P-TEFb-Tat; not shown: His-tag, N-terminal, cleaved; copies: + +
# Assay info: fluorescence polarisation
# Conditions used: both partners purified
GABA = NCCCC(=O)O

Binder | Kd
{FAM-GABA}-SPLFAEPYKVTSKEDKLSSRIQSMLGNYDEMKDFIG-NH2 (source: synthetic peptide (University of Utah DNA/Peptide Facility)) [fluorescein-labeled AFF4(32–67) peptide] | 8.8 nM
